Where do the numbers come from? From patent US6608069B1.

Tested on: male Lewis rats
method_notes: Carrageenan Pleurisy Assay
Type: in vivo
assay_context: inflammatory cells (neutrophils) in pleural exudate vs vehicle control; carrageenan 0.075 mg/rat; harvested four hours after carrageenan
Mark each entry yes (1) if its % Inhibition Cells sits below 40%, and no (0) for all others.

Lookup: Hello, I'm reviewing records and need to know if % Inhibition Cells of COCCOCCOCCOCCOCCOCCOCCOCCOCCOC(=O)/C=C/c1ccc(-c2nc3c(=O)n(Cc4ccccc4)c(=O)n(Cc4ccccc4)c3[nH]2)cc1 [Example 34] is below 40%. Could you check?
Found: yes (1)

Further cases:
Lookup: Hello, I'm reviewing records and need to know if % Inhibition Cells of CCCn1c(=O)n(CC2CCCCC2)c(=O)c2nc(-c3ccc(/C=C/C(=O)NCCOCCOCCOCCOCCOCCOCCOCCOCCOC)cc3)[nH]c21 [Example 74] is below 40%. Could you check?
Found: no (0)

Lookup: Proceed to CCCn1c(=O)c2nc(-c3ccc(/C=C/C(=O)OCCOCCOCCOCCOCCOCCOCCOCCOCCOC)cc3)[nH]c2n(CC2CCCCC2)c1=O [Example 44]
Found: no (0)

Lookup: Proceed to CCCn1c(=O)c2nc(-c3ccc(/C=C/C(=O)NCCOCCOCCOCCOCCOCCOCCOCCOCCOC)cc3)[nH]c2n(CC2CCCCC2)c1=O [Example 73]
Found: yes (1)

Lookup: Proceed to COCCOCCOCCOCCOCCOCCOCCOCCOCCOC(=O)/C=C/c1ccc(-c2nc3c(=O)n(CC4CCCC4)c(=O)n(CC4CCCC4)c3[nH]2)cc1 [Example 36]
Found: no (0)
